testSettings: in acetone, 288.15 K
valueKind: solubility (mole fraction)

# entrySmiles, valueKind, recordedMeasurement
rows = [
    ("O=C(O)CCCCCCCCCCCC(=O)O", "solubility (mole fraction)", 0.00207),
]

---

testSettings: in ethyl acetate, 293.15 K
valueKind: solubility (mole fraction)

# entrySmiles, recordedMeasurement
data = [
    ("O=C(O)CCCCCCCCCCCC(=O)O", 0.00111),
]

---

testSettings: in methanol, 318.15 K

# entrySmiles, solubility (mole fraction)
rows = [
    ("O=C(O)CCCCCCCCCCCC(=O)O", 0.0126),
]

---

testSettings: in ethanol, 298.15 K
valueKind: solubility (mole fraction)

# entrySmiles, valueKind, recordedMeasurement
measured = [
    ("O=C(O)CCCCCCCCCCCC(=O)O", "solubility (mole fraction)", 0.00441),
]

---

testSettings: in acetone, 308.15 K
valueKind: solubility (mole fraction)

# entrySmiles, valueKind, recordedMeasurement
rows = [
    ("O=C(O)CCCCCCCCCCCC(=O)O", "solubility (mole fraction)", 0.00892),
]

---

testSettings: in ethanol, 318.15 K

# entrySmiles, solubility (mole fraction)
records = [
    ("O=C(O)CCCCCCCCCCCC(=O)O", 0.0207),
]

---

testSettings: in methanol, 283.15 K
valueKind: solubility (mole fraction)

# entrySmiles, valueKind, recordedMeasurement
data = [
    ("O=C(O)CCCCCCCCCCCC(=O)O", "solubility (mole fraction)", 0.00291),
]

---

testSettings: in acetone, 318.15 K

# entrySmiles, solubility (mole fraction)
measured = [
    ("O=C(O)CCCCCCCCCCCC(=O)O", 0.0166),
]

---

testSettings: in acetic acid, 298.15 K

# entrySmiles, solubility (mole fraction)
rows = [
    ("O=C(O)CCCCCCCCCCCC(=O)O", 0.00418),
]

---

testSettings: in ethyl acetate, 308.15 K

# entrySmiles, solubility (mole fraction)
measured = [
    ("O=C(O)CCCCCCCCCCCC(=O)O", 0.00361),
]

---

testSettings: in ethyl acetate, 283.15 K

# entrySmiles, solubility (mole fraction)
rows = [
    ("O=C(O)CCCCCCCCCCCC(=O)O", 0.00072),
]

---

testSettings: in methanol, 293.15 K

# entrySmiles, solubility (mole fraction)
rows = [
    ("O=C(O)CCCCCCCCCCCC(=O)O", 0.00388),
]

---

testSettings: in ethanol, 323.15 K

# entrySmiles, solubility (mole fraction)
records = [
    ("O=C(O)CCCCCCCCCCCC(=O)O", 0.0263),
]

---

testSettings: in acetic acid, 308.15 K

# entrySmiles, solubility (mole fraction)
records = [
    ("O=C(O)CCCCCCCCCCCC(=O)O", 0.00975),
]

---

testSettings: in acetone, 303.15 K
valueKind: solubility (mole fraction)

# entrySmiles, valueKind, recordedMeasurement
measured = [
    ("O=C(O)CCCCCCCCCCCC(=O)O", "solubility (mole fraction)", 0.00633),
]

---

testSettings: in ethanol, 313.15 K

# entrySmiles, solubility (mole fraction)
measured = [
    ("O=C(O)CCCCCCCCCCCC(=O)O", 0.0149),
]

---

testSettings: in ethanol, 303.15 K
valueKind: solubility (mole fraction)

# entrySmiles, valueKind, recordedMeasurement
records = [
    ("O=C(O)CCCCCCCCCCCC(=O)O", "solubility (mole fraction)", 0.00674),
]
